biological target: native mouse MET on living mouse cells (mouse, UniProt P16056 25-1379); assay: cell-based or functional assay
readout_name: cell scattering score, MLP29, 0.004 nM (score 0-4)
Give bare numbers, in score 0-4.

Example cases with answers are listed next.
chimeric llama-human IgG1 mAb 74C8 (antibody, V domains shown) VH: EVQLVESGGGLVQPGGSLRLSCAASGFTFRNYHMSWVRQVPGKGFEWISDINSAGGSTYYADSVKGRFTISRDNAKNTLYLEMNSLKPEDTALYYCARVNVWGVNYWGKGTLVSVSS VL: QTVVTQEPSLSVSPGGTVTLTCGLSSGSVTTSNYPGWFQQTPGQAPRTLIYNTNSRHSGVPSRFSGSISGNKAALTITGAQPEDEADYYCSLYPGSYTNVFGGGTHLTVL    0
chimeric llama-human IgG1 mAb 76H10 (antibody, V domains shown) VH: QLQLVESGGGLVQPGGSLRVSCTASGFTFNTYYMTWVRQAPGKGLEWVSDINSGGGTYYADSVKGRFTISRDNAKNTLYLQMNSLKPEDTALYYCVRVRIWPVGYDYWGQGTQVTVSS VL: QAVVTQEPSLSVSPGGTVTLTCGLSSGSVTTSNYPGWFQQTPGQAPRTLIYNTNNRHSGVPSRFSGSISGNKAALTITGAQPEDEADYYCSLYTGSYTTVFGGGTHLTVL    0

Let us move to another entry and its cell scattering score, MLP29, 0.004 nM.
Requested field: cell scattering score, MLP29, 0.004 nM. Item: chimeric llama-human IgG1 mAb 71D6 (antibody, V domains shown) VH: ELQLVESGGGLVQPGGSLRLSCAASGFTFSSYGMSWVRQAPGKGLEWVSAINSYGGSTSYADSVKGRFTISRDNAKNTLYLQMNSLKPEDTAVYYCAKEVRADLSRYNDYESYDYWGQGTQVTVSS VL: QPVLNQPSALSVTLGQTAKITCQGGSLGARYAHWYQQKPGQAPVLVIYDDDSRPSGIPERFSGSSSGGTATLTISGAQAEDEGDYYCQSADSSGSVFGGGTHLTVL
1
